biological target: JAK1 (Homo sapiens (Human), UniProt P23458); test: JAK1 enzyme assay (Assay Example^b 1); settings: IC50 (μM) JAK1, Table^b 80; ATP 100 μM
metricName: IC50 (µM)
State the answer as a number, implicitly in µM.

Sample records with IC50:
{"columns": ["compound", "metricName", "reportedResult"],
 "data": [
  ["C[C@@H]1CCN(Cc2ccccc2)C[C@@H]1n1ccc(=O)c2cnc3[nH]cc(Br)c3c21 (racemic)", "IC50", 0.56],
  ["O=C1NCc2cnc3[nH]ccc3c2N1C1CCN(Cc2cncs2)CC1", "IC50", 0.08],
  ["CC1CCN(C(=O)C2CCC(C(C)(C)C)CC2)CC1n1ccc(=O)c2cnc3[nH]ccc3c21 (single isomer, unassigned) [Synthetic Example^b 48b]", "IC50", 0.094],
  ["O=C(c1ccc(Cl)s1)N1CCC(n2ccc(=O)c3cnc4[nH]ccc4c32)CC1", "IC50", 0.025],
  ["O=C1NCc2cnc3[nH]ccc3c2N1C1CCNCC1", "IC50", 0.5],
  ["CC1CCN(C(=O)C2CCC(C(C)(C)C)CC2)CC1n1ccc(=O)c2cnc3[nH]ccc3c21 (single isomer, unassigned) [Synthetic Example^b 48a]", "IC50", 0.14],
  ["O=C(Nc1nncs1)N1CCC(N2C(=O)NCc3cnc4[nH]ccc4c32)CC1", "IC50", 0.012],
  ["Cc1cn([C@H]2CN(Cc3ccccc3)CC[C@H]2C)c2c(cnc3[nH]ccc32)c1=O (racemic)", "IC50", 0.035]
]}

Sample `Cc1nc(CN2CCC(n3ccc(=O)c4cnc5[nH]ccc5c43)CC2)cs1` ; IC50 observed: 0.043

Values from patent US9216999B2
